# TEST_SUMMARY: melting temperature; fluorescence melt of hairpins on a sequencing array, two-state fit, raised by 9.35 °C to match UV melts
# CONDITION_DESCRIPTION: sodium 0.088 M
Values of Tm strictly less than 40 °C map to satisfied, and values of at least 40 °C map to not satisfied.

Examples from the recorded data:
{"SEQ_TEXT": "GTTAGCGAAAGCTGAAC ((((((....))).)))", "ASSIGNED_CATEGORY": "satisfied"}
{"SEQ_TEXT": "GAGTCCGAAAGGAGCCTC ((((((....)))..)))", "ASSIGNED_CATEGORY": "satisfied"}
{"SEQ_TEXT": "GATTGCGGAAACGCGATC (((.(((....))).)))", "ASSIGNED_CATEGORY": "not satisfied"}
{"SEQ_TEXT": "GAGTCCGCGAAAGCGCTC (((..(((....))))))", "ASSIGNED_CATEGORY": "satisfied"}
{"SEQ_TEXT": "GAGGTGCGAAAGCACTC (((.(((....))))))", "ASSIGNED_CATEGORY": "not satisfied"}
{"SEQ_TEXT": "GATCTCACTTGAGATC ((((((....))))))", "ASSIGNED_CATEGORY": "not satisfied"}

In plain terms, does GCCTTGCGAAAGCCGGGC (((..((....))..))) come in under 40 °C for Tm?
not satisfied

API: query returns whether the sequence falls strictly under 40 °C in Tm. Query: GAAGCCGAAAGGCTCTTC ((((((....)))..)))
not satisfied

Answer whether the sequence GAGATGGGAAACCACCTC (((.(((....))).))) has Tm strictly less than 40 °C
satisfied

====

# TEST_SUMMARY: folding enthalpy; higher = less favourable; fluorescence melt of hairpins on a sequencing array, two-state fit
# CONDITION_DESCRIPTION: sodium 0.088 M
MEASUREMENT_KIND: folding enthalpy (kcal/mol)
Answer format: numeric, kcal/mol implied, no suffix.

Below are worked cases with known answers.
{"SEQ_TEXT": "GCCGGCGAAAGCCCCGGC ((((((....)))..)))", "MEASUREMENT_KIND": "folding enthalpy", "UNITS_OF_MEASURE": "kcal/mol", "MEASURED_RESULT": -18.3}
{"SEQ_TEXT": "GTTTGTGGAAACACGAAC (((.(((....))).)))", "MEASUREMENT_KIND": "folding enthalpy", "UNITS_OF_MEASURE": "kcal/mol", "MEASURED_RESULT": -36}
{"SEQ_TEXT": "GACTACCCGAAAGGGGTC (((..(((....))))))", "MEASUREMENT_KIND": "folding enthalpy", "UNITS_OF_MEASURE": "kcal/mol", "MEASURED_RESULT": -11.3}
{"SEQ_TEXT": "GGCGCCGAAAGGCAAGCC ((((((....)))..)))", "MEASUREMENT_KIND": "folding enthalpy", "UNITS_OF_MEASURE": "kcal/mol", "MEASURED_RESULT": -21.7}

Given GACTGCGAAAGCAACGTC ((((((....)))..))) , state its recorded folding enthalpy.
-15.2

Give its folding enthalpy value. Item: GCGATGCGAAAGCGTTGC ((.(.((....)).).))
-25.9

Fill in: folding enthalpy of GTGGGTGGAAACACTCAC (((.(((....))).))) is ___
-37.2

Given the sequence GCGTACTAACGC ((((....)))) , what is its reported folding enthalpy?
-27.2

Reported folding enthalpy for CCGTAGAAATACGG (((((....))))) : what is it?
-17.8

// returns reported folding enthalpy for input GTAGACGAAAGTCAGTAC ((((((....)))..)))
-9.2

Entry under review: GCCGTGCGAAAGCAAAGC ((..(((....)))..)) . Reported folding enthalpy?
-9.19

Which folding enthalpy is listed for GCGGACGAAAGTCAACGC ((((((....)))..))) ?
-42

Query: folding enthalpy; subject: GCATACGAAAGTAGCTGC ((((((....)))..)))
-23.6

What measured folding enthalpy goes with GCTCGCGAAAGCGTGAGC ((((((....)))..))) ?
-18
